# test description: Cytotoxicity against human HepG2 cells assessed as reduction in cell viability by SRB assay
# Assay type: toxicity, cell-based
I'd be grateful if you could share measured EC50 for these entries.
# number only, unit µM dropped from output

Would you mind telling me what EC50 value was observed for COc1cc([C@H]2Oc3cc([C@H]4Oc5cc(O)cc(O)c5C(=O)[C@@H]4O)ccc3O[C@@H]2CO)ccc1O [SILYBIN A] ?
75.7

Same thing, different compound: CC1=C[C@@]2(C[C@H]([C@H]3CC[C@@]4(C)[C@@H]5CC[C@H]6C(C)(C)[C@@H](O)C=C[C@@]67C[C@@]57CC[C@]34C)[C@H](O)O2)OC1=O
37.9

Same thing, different compound: CC1=C[C@@]2(C[C@H]([C@H]3CC[C@@]4(C)[C@@H]5CC[C@H]6C(C)(C)[C@@H](O)C=C[C@@]67C[C@@]57CC[C@]34C)[C@@H](O)O2)OC1=O
123

###

# Test system: Hepatocyte
# test description: Hepatoprotective activity against H2O2-induced cell damage in rat hepatocyte assessed as reduction in cell growth
# Type: functional, cell-based
I'd be grateful if you could share measured EC50 for these entries.
# number only, unit µM dropped from output

Would you mind telling me what EC50 value was observed for CC(=O)N[C@@H](CS)C(=O)O [ACETYLCYSTEINE] ?
106

Same thing, different compound: CC1=C[C@]2(C=C([C@H]3CC[C@@]4(C)[C@@H]5CC[C@H]6C(C)(C)C(=O)C=C[C@]67C[C@]57CC[C@]34C)C(=O)N2)OC1=O
167

Same thing, different compound: CC1=C[C@]2(C=C([C@H]3CC[C@@]4(C)[C@@H]5CC[C@H]6C(C)(C)C(=O)C=C[C@@]67C[C@@]57CC[C@]34C)C(=O)N2)OC1=O
126

###

# test description: Hepatotoxicity in D-GaIN induced Wistar rat assessed as change in induction of TAT level for 10 days relative to control
# Type: toxicity
# Design: concentration or dose not given beside the values
# recorded conditions: in vivo, 240 h, time 10 day
measured parameter: Activity (%)
# number only, unit % dropped from output

Would you mind telling me what Activity value was observed for C[C@H]1[C@H](C)CC[C@@]2(C)[C@@H]1C1=CC[C@@H]3[C@@]4(C)CC[C@@H](O)C(C)(C)[C@@H]4CC[C@@]3(C)[C@]1(C)C[C@@H]2O ?
48

Same thing, different compound: CC1(C)CC[C@]2(C)CC[C@]3(C)C(=CC[C@@H]4[C@@]5(C)CC[C@@H](O)C(C)(C)[C@@H]5CC[C@]43C)[C@@H]2C1
70.2

Same thing, different compound: C[C@H]1[C@H](C)CC[C@@]2(C)[C@@H]1C1=CC[C@@H]3[C@@]4(C)CC[C@H](O)C(C)(C)[C@@H]4CC[C@@]3(C)[C@]1(C)C[C@@H]2O
39.8

Same thing, different compound: CC1(C)CC[C@]2(C)CC[C@]3(C)C(=CC[C@@H]4[C@@]5(C)CC[C@H](O)C(C)(C)[C@@H]5CC[C@]43C)[C@@H]2C1
40

Same thing, different compound: CC1(C)CC[C@@]2(C)[C@H](C1)C1=CC[C@@H]3[C@@]4(C)CC[C@@H](O)C(C)(C)[C@@H]4CC[C@@]3(C)[C@]1(C)C[C@@H]2O
5.3

Sourced from ChEMBL document CHEMBL5260832
